- Experiment: in vitro
- Format: in vitro ADME
- Measurement Setup: both sexes, human, hepatocytes, PHH; read-out: In vitro intrinsic clearance (CLint, in vitro)
Parameter: hepatocyte CLint at 20 µM

If you can, please state the reported hepatocyte CLint at 20 µM value of O=C(OCc1ccccc1)c1ccccc1O [BSal, benzyl salicylate] .
94.2 µL/min/1e6 cells

====

- System: COX2(h) (Homo sapiens, UniProt P35354)
- Sequence (P35354 18-604): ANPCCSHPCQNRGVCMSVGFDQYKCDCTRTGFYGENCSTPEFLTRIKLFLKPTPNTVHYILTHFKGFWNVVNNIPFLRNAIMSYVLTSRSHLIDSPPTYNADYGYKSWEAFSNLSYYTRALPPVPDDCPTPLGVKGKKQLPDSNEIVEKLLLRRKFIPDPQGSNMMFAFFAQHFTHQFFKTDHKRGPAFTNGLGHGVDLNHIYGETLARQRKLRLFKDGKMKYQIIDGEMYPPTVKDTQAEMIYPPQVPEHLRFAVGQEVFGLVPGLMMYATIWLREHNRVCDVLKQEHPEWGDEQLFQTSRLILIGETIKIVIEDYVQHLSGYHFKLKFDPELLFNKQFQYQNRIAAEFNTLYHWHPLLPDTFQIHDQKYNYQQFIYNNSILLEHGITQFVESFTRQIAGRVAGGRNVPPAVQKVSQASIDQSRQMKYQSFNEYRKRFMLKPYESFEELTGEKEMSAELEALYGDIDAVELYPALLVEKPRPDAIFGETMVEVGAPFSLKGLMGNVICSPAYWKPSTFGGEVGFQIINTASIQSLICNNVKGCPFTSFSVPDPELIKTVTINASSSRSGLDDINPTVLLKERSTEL
Parameter: IC50

Which IC50 is reported with COX2(h) (Homo sapiens, UniProt P35354) for this entry: O=C(O)c1ccccc1O ?
> 10 mM
